read-out: Fatty Acid-Binding Protein 1 (FABP1), FABP1 (gene 2168); assay: LTEA_HepaRG_FABP1: Life Technologies and Expression Analysis (LTEA) Assay for Fatty Acid-Binding Protein 1 (FABP1) using HepaRG (AID 2283494); conditions: mRNA level, 48 h; actives raise or lower the signal
Activity calls are given as the source filed them. Rule for the calls: active = hit-call score of the fitted dose curve at least 0.9, where 1 is the maximum; inactive = score below 0.9.
recorded.metric: AC50

O=C(O)CC(O)C(=O)O (configuration not stated): inactive
CC(C)=CCC/C(C)=C/CO: inactive
O=C1CCCCCN1: inactive
Cc1ccc(S(=O)(=O)O)cc1C: inactive
CCCC(=O)OCC: inactive

Moving on to the next molecule.
Asked: Look up and report measured AC50 for this entry: Cc1ccc(O)cc1
Given back: inactive

----------
Read-out: Matrix Metallopeptidase 1 (MMP1), MMP1 (gene 4312)
Assay: BSK_hDFCGF_MMP1: BioMAP Diversity Plus: hDFCGF Assay for Matrix Metallopeptidase 1 (MMP1) Biomarker Activity (AID 2283064)
Conditions: primary human foreskin fibroblasts; actives raise or lower the signal
Method: BSK_hDFCGF is a cell-based, multiplexed-readout assay that uses foreskin fibroblast, a human skin primary cell, with measurements taken at 24 hours after chemical dosing in a 96-well plate.BSK_hDFCGF_MMP1 is an assay component measured in the BSK_hDFCGF assay. It measures MMP-1 antibody related to regulation of gene expression using ELISA technology.Data from the assay component BSK_hDFCGF_MMP1 was analyzed into 1 assay endpoint. […]
The source made the active and inactive calls. Rule for the calls: active = hit-call score of the fitted dose curve at least 0.9, where 1 is the maximum; inactive = score below 0.9.
recorded.metric: AC50

Use these answered entries as a reference point.
CC(=O)OCCC(C)C: inactive
COCCOCCOCCOC: inactive
COc1cccc(-c2ccc(/C=C\CN3CCCCCC3)cc2Cl)c1: 34.4 µM (active)
CCc1cc(SCc2sc(-c3ccc(C(F)(F)F)cc3)nc2CN2CCN(c3ccc(OC)cc3)CC2)ccc1OCC(=O)O: 1.8 µM (active)
CN(C)c1ccc(N=NS(=O)(=O)O)cc1: inactive
CCCC(=O)OCC: inactive
CC(C)=CCCC(C)=CC=O: inactive
COCCOc1cc2cc(C(=O)NC3CCN(C(C)C)CC3)n(CC(=O)Nc3ccc(Cl)cn3)c2cn1: inactive

Asked: Output AC50 of Cn1c(=O)c2c(ncn2C)n(C)c1=O
Given back: inactive

Asked: For the molecule CC(=O)OC[C@H]1O[C@@](COC(C)=O)(O[C@H]2O[C@H](COC(C)=O)[C@@H](OC(C)=O)[C@H](OC(C)=O)[C@H]2OC(C)=O)[C@@H](OC(C)=O)[C@@H]1OC(C)=O , give its measured AC50 value.
Given back: inactive

Asked: Determine its reported AC50: O=C1CCC(N2C(=O)c3ccccc3C2=O)C(=O)N1 (stereo unspecified)
Given back: inactive

----------
experiment: TOX21_p53_BLA_p3_viability: Viability Assessment in the Tox21 HCT-116 p53 Agonism Beta-lactamase Assay, Phase 3 (AID 2283593);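 note: cells exposed to compound for 16 h before reading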
Results filed as inconclusive are left out. Activity calls are given as the source filed them. The calls were made as follows: active = hit-call score of the fitted dose curve at least 0.9, where 1 is the maximum; inconclusive = response in the unintended direction; inactive = score below 0.9.
recorded.metric: AC50

Worked examples follow.
CCCC(=O)OCC: inactive
CNS(=O)(=O)c1cc(C(=O)N2CCC(CCN3C4CCC3CC(n3c(C)nc5ccccc53)C4)(c3cccc(F)c3)CC2)c(Cl)cc1F (stereo unspecified): 46.1 µM (active)
COc1ccc(/C=C/S(=O)(=O)NC(=O)c2ccc(C)cc2Cl)cc1: inactive
O=C1CCC(N2C(=O)c3ccccc3C2=O)C(=O)N1 (stereo unspecified): inactive
CN(C)c1ccc(N=NS(=O)(=O)O)cc1: inactive

Asked: Dear colleague, please send me the reported AC50 for CCOc1cccc(-n2cc(C(=O)N3CCN(c4cc(C(=O)O)c5ccccc5c4)CC3)nc2-c2ccc(C)cc2)c1 when you can.
Given back: 28.6 µM (active)

Asked: Return the recorded AC50 value; entry: CC(C)CCCCCCOC(=O)c1ccc(C(=O)OCCCCCCC(C)C)c(C(=O)OCCCCCCC(C)C)c1
Given back: inactive

Asked: Tell me its AC50 given COc1cccc(-c2ccc(/C=C\CN3CCCCCC3)cc2Cl)c1 as the entry.
Given back: inactive

Asked: Fill in AC50 for record O=P(OC(CCl)CCl)(OC(CCl)CCl)OC(CCl)CCl
Given back: inactive

Asked: Write down AC50 measured for item CC(C)CCO
Given back: inactive

Asked: Return AC50 for the following compound: C=CCCCCCCCCC(=O)O
Given back: inactive

----------
read-out: Interleukin-8 (IL8), CXCL8 (gene 3576); assay: BSK_LPS_IL8: BioMAP Diversity Plus: LPS Assay for Interleukin-8 (IL8) Biomarker Activity (AID 2283078); conditions: primary human HUVEC with PBMC; actives raise or lower the signal
The source made the active and inactive calls. How the source made its calls: active means hit-call score of the fitted dose curve at least 0.9, where 1 is the maximum; inactive means score below 0.9.
Please reply with one of these outcomes: active, inactive

CC(C)=CCC/C(C)=C/CO: inactive

Asked: Test call for this molecule, please: CC[C@H]1CC[C@H](NCc2cc3c(cc2OC)[C@H]2C[C@H]2C(=O)N3C)[C@H](c2ccccc2)N1
Given back: inactive

Asked: Tell me the assay call for Cc1[nH]cnc1C[C@H]1CCc2c(C)c3ccccc3n2C1=O please.
Given back: active

Asked: For CC(C)CC(C)(O)C#CC(C)(O)CC(C)C (stereo unspecified) , what call appears in the results of this test?
Given back: inactive

Asked: Can you look up the reported call for NC(=O)NO for me?
Given back: inactive

Asked: Outcome logged for COc1ccc(-n2nc(C(F)F)cc2-c2ccc(S(C)=O)cc2)cc1 (stereo unspecified) in this assay:
Given back: inactive

----------
Read-out: UDP glucuronosyltransferase (UGT1A6), UGT1A6 (gene 54578)
Assay: LTEA_HepaRG_UGT1A6: Life Technologies and Expression Analysis (LTEA) Assay for UDP glucuronosyltransferase (UGT1A6) using HepaRG (AID 2283539)
Conditions: mRNA level, 48 h; actives raise or lower the signal
Experimental: LTEA_HepaRG is a cell based, multiplexed-readout assay that uses HepaRG, a human liver cell line, with measurements taken at 48 hours after chemical dosing on a 96-well plate.LTEA_HepaRG_UGT1A6 is one of 102 assay component(s) measured in the LTEA HepaRG cell culture assay. It is a marker of NR mediated metabolism.Data from the assay component LTEA_HepaRG_UGT1A6 was analyzed into 1 endpoint. […]
Active and inactive are the calls of the source. How the source made its calls: active means hit-call score of the fitted dose curve at least 0.9, where 1 is the maximum; inactive means score below 0.9.
recorded.metric: outcome

CCn1nc(Cc2ccccc2)cc1C1CCN(C[C@H]2C[C@H](N(C)[C@@H](C(=O)O)C(C)C)C[C@@H]2c2cccc(F)c2)CC1: inactive
CC(C)=CCCC(C)CCO (stereo not drawn): inactive
CC[C@H]1OC(=O)[C@H](C)[C@@H](O[C@H]2C[C@@](C)(OC)[C@@H](O)[C@H](C)O2)[C@H](C)[C@@H](O[C@@H]2O[C@H](C)C[C@H](N(C)C)[C@H]2O)[C@](C)(O)C[C@@H](C)C(=O)[C@H](C)[C@@H](O)[C@]1(C)O: inactive

----------
target: Ratio of Nucleoli Translocation and Cytoplasm, AR (gene 367); assay: UPITT_HCI_U2OS_AR_TIF2_Nucleoli_Cytoplasm_Ratio_Agonist: University of Pittsburgh U2OS Androgen Receptor-Transcriptional Intermediary Factor 2 (AR-TIF2) Agonism High Content Imaging Assay for Ratio of Nucleoli Translocation and Cytoplasm (AID 2284000);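 note: hits raise the red nucleolar to cytoplasm ratio above vehicle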
Results filed as inconclusive are left out. Active and inactive are the calls of the source. How the source made its calls: active means hit-call score of the fitted dose curve at least 0.9, where 1 is the maximum; inconclusive means response in the unintended direction; inactive means score below 0.9.
Would you mind answering with one of these outcomes? YES = active, NO = inactive

Field: example entries. Status: answers known.
Nc1nc2ncc(CNc3ccc(C(=O)N[C@@H](CCC(=O)O)C(=O)O)cc3)nc2c(=O)[nH]1: NO
C1N2CN3CN1CN(C2)C3: NO
Cc1ccc(O)cc1: NO
CCCCCCc1ccc(O)cc1O: YES
Oc1ccc2c(c1)-c1ccccc1C2: NO

Now for another entry.
Asked: Write down the call the test reported for this molecule. Item: CC(C)=CCCC(C)CCO (stereo unspecified)
Given back: NO

----------
read-out: Monokine induced gamma interferon (MIG), CXCL9 (gene 4283); test: BSK_BE3C_MIG: BioMAP Diversity Plus: BE3C Assay for Monokine induced gamma interferon (MIG) Biomarker Activity (AID 2283035); details: primary human bronchial epithelial cells; actives raise or lower the signal
Active and inactive are the calls of the source. How the source made its calls: active means hit-call score of the fitted dose curve at least 0.9, where 1 is the maximum; inactive means score below 0.9.
Respond with a class label; see active, inactive

CN(C)c1ccc(Cc2ccc(N(C)C)cc2)cc1: inactive
CC(=O)c1ccc2c(c1)[C@H](NC(=O)c1ccc(F)cc1)[C@@H](O)C(C)(C)O2: inactive
Cc1[nH]cnc1C[C@H]1CCc2c(C)c3ccccc3n2C1=O: inactive
CC(C)CCCCCCOC(=O)c1ccc(C(=O)OCCCCCCC(C)C)c(C(=O)OCCCCCCC(C)C)c1: inactive
NC(=O)NO: inactive
CCC(C)(C)C(=O)O[C@H]1C[C@@H](C)C=C2C=C[C@H](C)[C@H](CC[C@@H]3C[C@@H](O)CC(=O)O3)[C@H]21: active

Asked: Query: recorded result category for CCCCCCCCO in this test
Given back: inactive

Asked: Hi, do you know how COCCOc1cc2cc(C(=O)NC3CCN(C(C)C)CC3)n(CC(=O)Nc3ccc(Cl)cn3)c2cn1 came out in this test?
Given back: inactive

Asked: Kindly provide the recorded test outcome for the following compound: CCn1nc(Cc2ccccc2)cc1C1CCN(C[C@H]2C[C@H](N(C)[C@@H](C(=O)O)C(C)C)C[C@@H]2c2cccc(F)c2)CC1
Given back: inactive

Asked: Status in this test for CCOC(=O)COc1ccc2c(c1)CC(NCC(O)c1cccc(Cl)c1)CC2 (stereo unspecified) ?
Given back: inactive

Asked: Could you please tell me the result logged for CCOc1cccc(-n2cc(C(=O)N3CCN(c4cc(C(=O)O)c5ccccc5c4)CC3)nc2-c2ccc(C)cc2)c1 in this assay?
Given back: active
